Reported microsomal CLint at 0.5 μM by item:
assay: Determination of the microsomal half-life, rat liver microsomes; conditions: rat, liver microsomes, pH 7.4
Structures can show the parent of a compound that is named as a salt.

Solved entries:
> print(dat)
                                   compound                 result.type            meas.value
1  CN1CCN(C2CCN(c3cccc4c3C(=O)N(CCc3ccc5ccccc5n3)C4)CC2)CC1 [Example 100, trifluoroacetate]  microsomal CLint at 0.5 μM       < 100 µL/min/mg
2  CN(C)C1CCN(c2ccnc3c2C(=O)N(CCc2ccc4ccccc4n2)C3)CC1 [Example 363, hydrochloride]  microsomal CLint at 0.5 μM       < 100 µL/min/mg
3  O=C1c2c(-c3ccncc3)ccnc2CN1CCc1cc2ccccc2o1  microsomal CLint at 0.5 μM       < 100 µL/min/mg
4  Cc1ccc(CCN2Cc3nccc(-c4ccncc4)c3C2=O)nc1C [compound 474, trifluoroacetate]  microsomal CLint at 0.5 μM  100 to 220 µL/min/mg
5  O=C1c2c(-c3ccncc3)ccnc2CN1CCc1ccc(-c2ccccc2)cn1 [compound 488, trifluoroacetate]  microsomal CLint at 0.5 μM       > 220 µL/min/mg

// query What value of microsomal CLint at 0.5 μM has been reported for the following compound? `COc1ccc(N2CCS(=O)(=O)CC2)c2c1CN(CCc1ccc3ccccc3n1)C2=O`
// result 100 to 220 µL/min/mg

// query Give the measured microsomal CLint at 0.5 μM of `Cn1c(CCN2Cc3cccc(-c4cccnc4)c3C2=O)nc2ccccc21` .
// result < 100 µL/min/mg

* * *

Overview of recorded microsomal CLint at 0.5 μM for various compounds
test: Determination of the microsomal half-life, human liver microsomes; conditions: human, liver microsomes, pH 7.4

Previously resolved entries follow.
> print(dat)
                                   compound                 result.type            meas.value
1  O=C1c2c(C3=CCOCC3)ccnc2CN1CCc1ccc2ccccc2n1 [Example 265]  microsomal CLint at 0.5 μM  100 to 220 µL/min/mg
2  O=C1c2c(-c3cc[nH]n3)ccnc2CN1CCc1cn2ccccc2n1 [compound 413]  microsomal CLint at 0.5 μM       < 100 µL/min/mg
3  Cc1noc(C)c1-c1ccnc2c1C(=O)N(CCc1ccc3ccccc3n1)C2 [Example 335]  microsomal CLint at 0.5 μM  100 to 220 µL/min/mg

Alright, here's another compound for you.
// query # get_value(readout='microsomal CLint at 0.5 μM', item= O=C1c2c(N3CCOCC3)ccnc2CN1CCc1nc2ccccc2s1 [Example 377] )
// result < 100 µL/min/mg

* * *

assay: Determination of the microsomal half-life, rat liver microsomes; conditions: rat, liver microsomes, pH 7.4
Structures can show the parent of a compound that is named as a salt.
Measured microsomal CLint at 0.5 μM of individual entries

See these solved cases before continuing.
> print(dat)
                                   compound            meas.value
1  C=C(C)c1ccc(Oc2ccc(-c3cccc4c3C(=O)N(CCc3ccc5ccccc5n3)C4)cc2)cc1 [Example 146]  100 to 220 µL/min/mg
2  CN1CCN(c2cccc3c2C(=O)N(CCc2nc4ccccc4n2C)C3)CC1 [Example 254]       < 100 µL/min/mg
3  O=C1c2c(N3CCOCC3)ccnc2CN1CCc1nc(C2CC2)cs1 [compound 518]  100 to 220 µL/min/mg

// query Item under review: CN1CCN(c2cccc3c2CN(CCc2ccc4ccccc4n2)C3=O)CC1 [Example 144] . Reported microsomal CLint at 0.5 μM?
// result 100 to 220 µL/min/mg

// query Request the reported microsomal CLint at 0.5 μM associated with COc1ccc(-c2cccc3c2C(=O)N(CCc2ccc4ccccc4n2)C3)cn1 [Example 54]
// result 100 to 220 µL/min/mg

// query Requested field: microsomal CLint at 0.5 μM. Item: Cc1noc(C)c1-c1ccnc2c1C(=O)N(CCc1ccc3ccccc3n1)C2 [Example 335]
// result > 220 µL/min/mg

// query Need microsomal CLint at 0.5 μM of O=C1c2c(cccc2N2CCN(c3cccnc3)CC2)CN1CCc1ccc2ccccc2n1 [Example 159, trifluoroacetate] , thanks.
// result 100 to 220 µL/min/mg

// query Param item = O=C1c2c(N3CCOCC3)ccnc2CN1CCc1cnc2ccccc2n1 [compound 495, trifluoroacetate] ; retrieve measured microsomal CLint at 0.5 μM.
// result < 100 µL/min/mg

// query What value of microsomal CLint at 0.5 μM has been recorded for this entry: COc1ccc(-c2ccnn2C)c2c1CN(CCc1cn3ccccc3n1)C2=O [Example 373]
// result < 100 µL/min/mg

// query Item under review: Cn1nccc1-c1ccnc2c1C(=O)N(CCc1nc3ccccc3s1)C2 [compound 432, trifluoroacetate] . Reported microsomal CLint at 0.5 μM?
// result < 100 µL/min/mg
